All values here come from patent US20250051435A1.

- Experimental target: T1, feline IL-5 (Kingfisher Biotech; RP1152F) (feline, UniProt O77515 20-134)
- T1 construct: Bought recombinant protein; also called fIL-5; fIL5
- T1 sequence (looked up): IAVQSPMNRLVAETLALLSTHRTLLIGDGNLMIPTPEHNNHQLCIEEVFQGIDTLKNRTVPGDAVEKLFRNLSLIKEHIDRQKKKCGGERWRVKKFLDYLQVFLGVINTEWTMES
- Test method notes: ELISA on plate-coated feline IL-5, Fab at 65 ng/ml dimerized with goat anti-feline IgG F(ab')2, anti-goat-HRP detection
Experimental endpoint: Normalized fIL-5 ELISA value, 65 ng/ml Fab
One number for each entry.

Below, each entry is followed by its recorded Normalized fIL-5 ELISA value, 65 ng/ml Fab result.
1L2-H7 Fab (MtxB LCDR2 variant) (Fab, V domains shown, Fab from the MtxB LCDR2 library; the entry named is the parent, the changed CDR is told under detail) VH: DVQLVESGGDLVKPGGSLRLTCVGSGFTFSNYAMSWVRQAPGEGLQWVATIGSGGHYTYHPDSVKGRFTISRDNAKNTLYLQMNSLQTEDTASYYCTRETDGYDGMDYWGQGTLVTVSS VL: DIVMTQTPLSLSVTPGEPASISCRASQSISDYLYWYLQKPGQSPRRVFFTVSGGVSGVPDRFSGSGSGTDFTLRISRVEADDVGVYYCQNGHSFPYTFGPGTKLEIK; 0.283
1L2-D1 Fab (MtxB LCDR2 variant) (Fab, V domains shown, Fab from the MtxB LCDR2 library; the entry named is the parent, the changed CDR is told under detail) VH: DVQLVESGGDLVKPGGSLRLTCVGSGFTFSNYAMSWVRQAPGEGLQWVATIGSGGHYTYHPDSVKGRFTISRDNAKNTLYLQMNSLQTEDTASYYCTRETDGYDGMDYWGQGTLVTVSS VL: DIVMTQTPLSLSVTPGEPASISCRASQSISDYLYWYLQKPGQSPRRIFFTESQRASGVPDRFSGSGSGTDFTLRISRVEADDVGVYYCQNGHSFPYTFGPGTKLEIK; 0.492

# next binder below
binder MtxB Fab (Fab, V domains shown, Fab made in E. coli from the phagemid: heavy chain variable domain, CH1 and partial hinge; light chain of MtxB; also called Matrix B; original MtxB Fab) VH: DVQLVESGGDLVKPGGSLRLTCVGSGFTFSNYAMSWVRQAPGEGLQWVATIGSGGHYTYHPDSVKGRFTISRDNAKNTLYLQMNSLQTEDTASYYCTRETDGYDGMDYWGQGTLVTVSS VL: DIVMTQTPLSLSVTPGEPASISCRASQSISDYLYWYLQKPGQSPRRLIYYASQSISGVPDRFSGSGSGTDFTLRISRVEADDVGVYYCQNGHSFPYTFGPGTKLEIK , Normalized fIL-5 ELISA value, 65 ng/ml Fab observed: 0.165
